Assay: Mouse pharmacokinetics study (intravenous and oral)
Assay type: in vivo
Details: mouse, plasma; CD-1 mice, PO 25 mg/kg
From the text: The test articles were formulated in […] Hydroxypropyl-beta-cyclodextrin, either as a clear solution or fine suspension.
MEASUREMENT_TYPE: log10(Cmax) (log10 of the value in ng/mL)

[
  {
    "SMI": "Cc1ccc(NC(=O)c2cc(C(C)(C)F)ccn2)cc1C1=Cc2cnc(Nc3cnn(C)c3)nc2N2CCN=C12",
    "MEASUREMENT_TYPE": "log10(Cmax)",
    "MEASURED_VALUE": 3.03
  },
  {
    "SMI": "CNc1ncc2c(n1)N1CCN=C1C(c1cc(NC(=O)c3cc(C(C)(C)C#N)ccn3)ccc1C)=C2",
    "MEASUREMENT_TYPE": "log10(Cmax)",
    "MEASURED_VALUE": 3.04
  },
  {
    "SMI": "Cc1cc(F)c(NC(=O)c2cc(C(F)(F)F)ccn2)cc1C1=Cc2cnc(NC3COC3)nc2N2CCN=C12",
    "MEASUREMENT_TYPE": "log10(Cmax)",
    "MEASURED_VALUE": 3.41
  },
  {
    "SMI": "Cc1ccc(NC(=O)c2cc(C(C)(C)C#N)ccn2)cc1C1=Cc2cnc(Nc3cnn(C)c3)nc2N2CCN=C12",
    "MEASUREMENT_TYPE": "log10(Cmax)",
    "MEASURED_VALUE": 2.39
  },
  {
    "SMI": "Cc1ccc(NC(=O)c2cc(C(F)(F)F)ccn2)cc1C1=Cc2cnc(Nc3ccn(C)n3)nc2N2CCN=C12",
    "MEASUREMENT_TYPE": "log10(Cmax)",
    "MEASURED_VALUE": 3.21
  },
  {
    "SMI": "Cc1cc(Nc2ncc3c(n2)N2CCN=C2C(c2cc(NC(=O)c4cc(C(F)(F)F)ccn4)ccc2C)=C3)sn1",
    "MEASUREMENT_TYPE": "log10(Cmax)",
    "MEASURED_VALUE": 3.49
  },
  {
    "SMI": "Cc1ncc(Nc2ncc3c(n2)N2CCN=C2C(c2cc(NC(=O)c4cc(C(F)(F)F)ccn4)ccc2C)=C3)s1",
    "MEASUREMENT_TYPE": "log10(Cmax)",
    "MEASURED_VALUE": 3.08
  }
]

* * *

Experiment: Mouse pharmacokinetics study (intravenous and oral)
Format: in vivo
Conditions: mouse, plasma; CD-1 mice, PO 25 mg/kg
Description: The test articles were formulated in […] Hydroxypropyl-beta-cyclodextrin, either as a clear solution or fine suspension.

[
  {
    "SMI": "Cc1cc(Nc2ncc3c(n2)N2CCN=C2C(c2cc(NC(=O)c4cc(C(F)(F)F)ccn4)ccc2C)=C3)sn1",
    "AUC [ng·h/mL]": 36900
  },
  {
    "SMI": "Cc1cc(F)c(NC(=O)c2cc(C(C)(C)C#N)ccn2)cc1C1=Cc2cnc(NC3COC3)nc2N2CCN=C12",
    "AUC [ng·h/mL]": 8610
  },
  {
    "SMI": "Cc1cc(F)c(NC(=O)c2cc(C(F)(F)F)ccn2)cc1C1=Cc2cnc(NC3COC3)nc2N2CCN=C12",
    "AUC [ng·h/mL]": 16300
  },
  {
    "SMI": "Cc1ccc(NC(=O)c2cc(C(F)(F)F)ccn2)cc1C1=Cc2cnc(Nc3ccn(C)n3)nc2N2CCN=C12",
    "AUC [ng·h/mL]": 20500
  }
]

* * *

What follows is a record of IC50 for UniProtKB P07949.
Sequence (P07949 29-1114, species assumed): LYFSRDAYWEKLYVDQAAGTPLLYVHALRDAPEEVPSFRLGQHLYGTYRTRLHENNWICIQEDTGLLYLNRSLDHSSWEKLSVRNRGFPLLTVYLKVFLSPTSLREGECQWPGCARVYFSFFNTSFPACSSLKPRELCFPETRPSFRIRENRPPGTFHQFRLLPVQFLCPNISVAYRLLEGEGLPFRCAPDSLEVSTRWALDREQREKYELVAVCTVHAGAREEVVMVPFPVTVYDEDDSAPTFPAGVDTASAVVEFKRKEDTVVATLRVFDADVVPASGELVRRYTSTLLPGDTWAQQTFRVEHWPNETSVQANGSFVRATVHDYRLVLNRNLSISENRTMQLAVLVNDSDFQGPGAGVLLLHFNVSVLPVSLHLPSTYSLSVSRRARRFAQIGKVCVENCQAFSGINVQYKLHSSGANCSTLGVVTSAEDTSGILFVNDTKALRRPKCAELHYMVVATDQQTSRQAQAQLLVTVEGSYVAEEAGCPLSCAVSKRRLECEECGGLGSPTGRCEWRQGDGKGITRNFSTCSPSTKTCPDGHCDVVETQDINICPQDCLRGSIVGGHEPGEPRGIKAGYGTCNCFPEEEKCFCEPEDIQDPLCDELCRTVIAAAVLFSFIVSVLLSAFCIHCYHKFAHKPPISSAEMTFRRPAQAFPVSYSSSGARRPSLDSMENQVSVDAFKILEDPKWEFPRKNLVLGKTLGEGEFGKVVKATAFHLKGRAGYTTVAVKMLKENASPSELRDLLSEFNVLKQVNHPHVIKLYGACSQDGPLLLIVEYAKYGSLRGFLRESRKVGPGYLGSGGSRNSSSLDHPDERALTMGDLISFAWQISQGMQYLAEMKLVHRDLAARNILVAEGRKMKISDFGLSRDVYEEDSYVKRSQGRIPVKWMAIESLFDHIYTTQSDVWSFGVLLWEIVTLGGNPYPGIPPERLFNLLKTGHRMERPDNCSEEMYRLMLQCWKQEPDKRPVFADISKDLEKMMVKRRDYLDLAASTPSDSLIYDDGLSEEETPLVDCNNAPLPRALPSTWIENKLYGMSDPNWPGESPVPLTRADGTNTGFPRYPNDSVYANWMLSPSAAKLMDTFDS

[
  {
    "COMPOUND": "CNc1ncc2c(n1)N1C(=NC[C@H]1C)C(c1cc(NC(=O)c3cc(C(F)(F)F)ccn3)ccc1C)=C2 [Compound 129]",
    "SYSTEM_TESTED": "UniProtKB P07949",
    "IC50": "100 to 10000 nM"
  },
  {
    "COMPOUND": "CNc1ncc2c(n1)N1CCN=C1C(c1cc(NC(=O)c3cc(C(F)(F)F)ccn3)ccc1C)=C2 [Compound 107]",
    "SYSTEM_TESTED": "UniProtKB P07949",
    "IC50": "< 100 nM"
  },
  {
    "COMPOUND": "CNc1ncc2c(n1)N1CCN=C1C(c1cc(NC(=O)c3cc(C(F)(F)F)ccn3)ccc1C)=C2C [Compound 120]",
    "SYSTEM_TESTED": "UniProtKB P07949",
    "IC50": "100 to 10000 nM"
  },
  {
    "COMPOUND": "CNc1ncc2c(n1)N1CCN=C1C(c1ccc(NC(=O)C3(C(=O)Nc4ccc(F)cc4)CC3)cc1F)=C2 [Compound 340]",
    "SYSTEM_TESTED": "UniProtKB P07949",
    "IC50": "100 to 10000 nM"
  },
  {
    "COMPOUND": "Cc1ccc(NC(=O)c2cc(C(F)(F)F)ccn2)cc1C1=Cc2cnc(NCCF)nc2N2CCN=C12 [Compound 111]",
    "SYSTEM_TESTED": "UniProtKB P07949",
    "IC50": "< 100 nM"
  }
]

* * *

molecular target: SRC (Homo sapiens); construct: purchased Carna Biosciences; assay: In vitro kinase assay, SRC (Caliper EZ Reader conversion); format: biochemical; conditions: read-out: SRC IC50
Sequence (P12931 whole entry): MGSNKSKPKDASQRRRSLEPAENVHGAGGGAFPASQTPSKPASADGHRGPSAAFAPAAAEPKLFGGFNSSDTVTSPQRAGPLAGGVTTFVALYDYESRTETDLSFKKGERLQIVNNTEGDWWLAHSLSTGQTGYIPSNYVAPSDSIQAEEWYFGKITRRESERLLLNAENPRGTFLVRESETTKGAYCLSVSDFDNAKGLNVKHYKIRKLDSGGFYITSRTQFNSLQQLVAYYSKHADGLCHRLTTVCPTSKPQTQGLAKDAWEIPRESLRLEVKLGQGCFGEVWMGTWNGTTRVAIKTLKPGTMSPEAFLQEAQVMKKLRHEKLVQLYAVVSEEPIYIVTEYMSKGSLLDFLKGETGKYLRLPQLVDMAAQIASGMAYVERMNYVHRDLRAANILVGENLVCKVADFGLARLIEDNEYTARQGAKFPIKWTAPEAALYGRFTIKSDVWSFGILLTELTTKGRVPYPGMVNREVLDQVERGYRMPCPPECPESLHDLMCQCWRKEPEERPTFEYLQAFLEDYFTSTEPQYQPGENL

[
  {
    "COMPOUND": "Fc1cc(N2CCNCC2)ccc1Nc1ncc2c(n1)N1CCN=C1C(c1ccc(Cl)cc1)=C2 [Compound 28]",
    "IC50": "0.1 to 10 µM"
  },
  {
    "COMPOUND": "CSc1cccc(Nc2ncc3c(n2)N2CCN=C2C(c2ccccc2Cl)=C3)c1 [Compound 18]",
    "IC50": "< 0.1 µM"
  },
  {
    "COMPOUND": "Cc1ccc(NC(=O)c2cccc(C(F)(F)F)c2)cc1C1=Cc2cnc(N)nc2N2CCCN=C12 [Compound 75]",
    "IC50": "< 0.1 µM"
  },
  {
    "COMPOUND": "CN(C)CCOc1ccc(Nc2ncc3c(n2)N2CCN=C2C(c2ccccc2Cl)=C3)cc1 [Compound 22]",
    "IC50": "< 0.1 µM"
  },
  {
    "COMPOUND": "CNc1ncc2c(n1)N1CCCN=C1C(c1ccc(N3CCN(C)C3=O)cc1Cl)=C2 [Compound 71]",
    "IC50": "> 10 µM"
  },
  {
    "COMPOUND": "Clc1cccc(Cl)c1C1=Cc2cnc(N3CCN(c4ccncc4)CC3)nc2N2CCN=C12 [Compound 51]",
    "IC50": "0.1 to 10 µM"
  },
  {
    "COMPOUND": "Clc1ccccc1C1=Cc2cnc(Nc3ccncc3)nc2N2CCN=C12 [Compound 16]",
    "IC50": "0.1 to 10 µM"
  },
  {
    "COMPOUND": "Fc1cc(Nc2ncc3c(n2)N2CCN=C2C(c2ccc(Cl)cc2)=C3)ccc1N1CCNCC1 [Compound 26]",
    "IC50": "< 0.1 µM"
  },
  {
    "COMPOUND": "COc1nc(N2CCNCC2)ccc1Nc1ncc2c(n1)N1CCN=C1C(C#Cc1cccnc1)=C2 [Compound 40]",
    "IC50": "> 10 µM"
  },
  {
    "COMPOUND": "CCNc1ncc2c(n1)N1CCN=C1C(c1ccc(-n3ccnc(C)c3=O)cc1Cl)=C2 [Compound 24]",
    "IC50": "> 10 µM"
  },
  {
    "COMPOUND": "Fc1cc(Nc2ncc3c(n2)N2CCCN=C2C(c2ccc(Cl)cc2Cl)=C3)ccc1N1CCNCC1 [Compound 69]",
    "IC50": "< 0.1 µM"
  },
  {
    "COMPOUND": "Fc1cc(Nc2ncc3c(n2)N2CCN=C2C(c2ccccc2)=C3)ccc1N1CCNCC1 [Compound 27]",
    "IC50": "< 0.1 µM"
  },
  {
    "COMPOUND": "Fc1ccccc1Nc1ncc2c(n1)N1CCCN=C1C(c1cccc3[nH]ccc13)=C2 [Compound 57]",
    "IC50": "> 10 µM"
  },
  {
    "COMPOUND": "Cc1ccc(NC(=O)c2cc(C(F)(F)F)ccn2)cc1C1=Cc2cnc(N)nc2N2CCCN=C12 [Compound 76]",
    "IC50": "0.1 to 10 µM"
  },
  {
    "COMPOUND": "COc1nc(N2CCNCC2)ccc1Nc1ncc2c(n1)N1CCN=C1C(c1ccc(Cl)cc1Cl)=C2 [Compound 35]",
    "IC50": "0.1 to 10 µM"
  },
  {
    "COMPOUND": "Clc1cnccc1C1=Cc2cnc(Nc3ccncc3)nc2N2CCN=C12 [Compound 46]",
    "IC50": "> 10 µM"
  },
  {
    "COMPOUND": "Fc1cc(Nc2ncc3c(n2)N2CCN=C2C(c2ccccc2Cl)=C3)ccc1N1CCNCC1 [Compound 11]",
    "IC50": "< 0.1 µM"
  },
  {
    "COMPOUND": "Fc1cc(N2CCNCC2)ccc1Nc1ncc2c(n1)N1CCCN=C1C(c1ccc(Cl)cc1Cl)=C2 [Compound 68]",
    "IC50": "0.1 to 10 µM"
  },
  {
    "COMPOUND": "COc1nc(N2CCNCC2)ccc1Nc1ncc2c(n1)N1CCN=C1C(c1ccc(-n3ccnc(C)c3=O)cc1)=C2 [Compound 42]",
    "IC50": "> 10 µM"
  },
  {
    "COMPOUND": "COc1cccc(Nc2ncc3c(n2)N2CCN=C2C(c2ccccc2Cl)=C3)c1 [Compound 17]",
    "IC50": "< 0.1 µM"
  },
  {
    "COMPOUND": "CN1CCN(c2ccc(Nc3ncc4c(n3)N3CCN=C3C(c3ccc(Cl)cc3Cl)=C4)c(F)c2)CC1 [Compound 8]",
    "IC50": "< 0.1 µM"
  },
  {
    "COMPOUND": "Fc1ccccc1Nc1ncc2c(n1)N1CCCN=C1C(c1cccc3[nH]ncc13)=C2 [Compound 58]",
    "IC50": "0.1 to 10 µM"
  },
  {
    "COMPOUND": "COc1ccccc1C1=Cc2cnc(Nc3ccc(N4CCNCC4)cc3F)nc2N2CCN=C12 [Compound 31]",
    "IC50": "0.1 to 10 µM"
  },
  {
    "COMPOUND": "Clc1ccccc1C1=Cc2cnc(Nc3ccncc3)nc2N2CCCN=C12 [Compound 54]",
    "IC50": "> 10 µM"
  },
  {
    "COMPOUND": "CCNc1ncc2c(n1)N1CCN=C1C(c1ccc(Cl)cc1Cl)=C2 [Compound 4]",
    "IC50": "> 10 µM"
  },
  {
    "COMPOUND": "COc1nc(N2CCNCC2)ccc1Nc1ncc2c(n1)N1CCN=C1C(c1ccccn1)=C2 [Compound 39]",
    "IC50": "> 10 µM"
  },
  {
    "COMPOUND": "Fc1ccc(Nc2ncc3c(n2)N2CCN=C2C(c2ccccc2Cl)=C3)cc1 [Compound 19]",
    "IC50": "< 0.1 µM"
  },
  {
    "COMPOUND": "Cc1ccc(Nc2ncc3c(n2)N2CCN=C2C(c2ccccc2Cl)=C3)cc1F [Compound 20]",
    "IC50": "< 0.1 µM"
  },
  {
    "COMPOUND": "CNc1ncc2c(n1)N1CCCN=C1C(c1ccc(-n3cccc(C)c3=O)cc1Cl)=C2 [Compound 72]",
    "IC50": "> 10 µM"
  },
  {
    "COMPOUND": "CNc1ncc2c(n1)N1CCN=C1C(c1ccc(-c3cncc(C)n3)cc1Cl)=C2 [Compound 25]",
    "IC50": "> 10 µM"
  },
  {
    "COMPOUND": "CCN1CCN(c2ccc(Nc3ncc4c(n3)N3CCN=C3C(c3ccc(Cl)cc3Cl)=C4)cc2F)CC1 [Compound 3]",
    "IC50": "< 0.1 µM"
  },
  {
    "COMPOUND": "COc1nc(N2CCNCC2)ccc1Nc1ncc2c(n1)N1CCN=C1C(c1ccncc1)=C2 [Compound 41]",
    "IC50": "> 10 µM"
  },
  {
    "COMPOUND": "C1=C(c2ccncc2)C2=NCCN2c2nc(Nc3ccncc3)ncc21 [Compound 45]",
    "IC50": "> 10 µM"
  }
]
